# PROTOCOL TEXT: in vitro
# SETTINGS: human, hela cells, % viability
MEASURE NAME: viability at 28.5 h, 10 µM (%)
# number only, unit % dropped from output

Below: 5 compounds and their reported viability at 28.5 h, 10 µM.
Clc1cccc(-c2cc(NCc3cccs3)n3nccc3n2)c1; 105
Cn1cncc1C(=O)NCc1ccccc1; 96.9
CC(C)(C)OC(=O)N1CCC2(CC1)NC(=O)c1cc(-c3cccc4ncccc34)ccc1O2; 109
N#C/C(=C\c1ccc(N2CCOCC2)cc1)c1nc2ncc(Br)cc2[nH]1; 89.4
COc1ccc(S(=O)(=O)N2CCN(C(C(=O)O)c3ccc(C)cc3)CC2)cc1 (centres unmarked); 104

Request: # lookup: viability at 28.5 h, 10 µM of CC(C)Cc1nc(C(=O)N2CCC3(C2)NC(=O)NC3=O)cs1 (centres unmarked)
Response: 91.8

----------
Reported viability at 28.5 h, 10 µM by item:
# PROTOCOL TEXT: in vitro
# SETTINGS: human, hela cells, % viability

O=C(Nc1ccccc1Cl)N1CCN(CCN2CCOCC2)CC1; 89.4%

Request: Could you share which viability at 28.5 h, 10 µM value was measured for `Cc1nn(Cc2cccc3ccccc23)c(C)c1NC(=O)c1ccccn1` ?
Response: 105%

Request: What do you get for COc1cc(CN(C)CCc2ccccn2)c([N+](=O)[O-])cc1OC [CBK261737G] ?
Response: 88.3%

Request: Next compound up: `O=C(CNC(=O)c1ccccc1F)N/N=C/c1cccs1`
Response: 97.8%

Request: Ok, now `COc1ccc(CN2CCN(c3ccc(F)cc3)CC2)cc1OCc1ccccc1`
Response: 95%

----------
# PROTOCOL TEXT: in vitro
# SETTINGS: human, hela cells, % viability
MEASURE NAME: viability at 28.5 h, 10 µM
Express the reported value numerically, then name its unit.

Illustrative cases are given below, each with its answer.
COc1ccccc1OCCCN1C(=O)C2(CC(=O)N(C)C2=O)c2cc(F)ccc21 (stereo not drawn); 88.2%
COc1ccc(-c2cc(CC3(NCc4ccccc4O)COC3)no2)cc1; 91.3%

Request: Query: viability at 28.5 h, 10 µM; subject: `Cc1cc(C)n(CCCNC(=O)Cc2csc(N3CCCC3=O)n2)n1`
Response: 94.6%

Request: Queued: `Cc1cc2nc(SCCNC(=O)c3ccc(Cl)cc3)nc(C)c2cc1C`
Response: 93.3%

Request: Entry to check: `CCOC(=O)C1=C(Nc2ccc(O)cc2)C(=O)N(C(C)(C)C)C1`
Response: 83%

Request: And for `Cn1c(=O)c2c(-c3ccccc3)n(-c3ccc(C(=O)O)cc3)cc2n(C)c1=O` ?
Response: 84%

Request: Next compound: Cc1cc(=O)n(CC(=O)NC(C)Cc2ccccn2)c2ccccc12 (stereo not drawn)
Response: 90.3%

Request: Same question for `O=C(Nc1ccccc1Cl)c1ccc(NCCN2C(=O)c3ccccc3C2=O)c([N+](=O)[O-])c1` please.
Response: 95.8%

Request: Now try `O=C(CNC(=O)c1cccc(Cl)c1)N/N=C/C=C/c1ccccc1` .
Response: 90.4%

----------
Reported viability at 28.5 h, 10 µM by item:
# PROTOCOL TEXT: in vitro
# SETTINGS: human, hela cells, % viability
Please give a number only; it is taken to be in %.

The examples below pair each entry with its known result.
Cc1ccc2nc(C(=O)O)cc(C(=O)O)c2c1 [CBK261174]; 91.6
Cc1cccc(CN2CCC(NC(=O)Cn3cc(Br)ccc3=O)CC2)c1 [CBK305669]; 80
O=S1(=O)CCN(Cc2cn(-c3ccccc3)nn2)CC1 [CBK113103]; 88.9
Cc1nn(C)c(C)c1NC(=O)COc1ccccc1C#N [CBK305850]; 95
COc1ccccc1-c1nc(C2CCCN(C(=O)NCCc3cccs3)C2)n2ccccc12 (centres unmarked) [CBK047163]; 95.5
CC(Oc1ccc(Cl)cc1Cl)C(=O)NC1CC(C)(C)NC(C)(C)C1 (centres unmarked) [CBK263951C]; 90.3
CC(C)(C)c1ccc(S(=O)(=O)N2CCSC2)cc1 [CBK095672]; 101
O=[N+]([O-])c1cccc(S(=O)(=O)Nc2ccc(C(O)(C(F)(F)F)C(F)(F)F)cc2)c1 [CBK062093]; 102

Request: Quick check: viability at 28.5 h, 10 µM of CC(C(=O)NC(c1ccncc1)c1cccs1)n1ccnc1 (centres unmarked) [CBK281438] ?
Response: 90.9

Request: Follow-up entry: Ic1cnn(Cc2nc(-c3ccc4c(c3)OCO4)no2)c1 [CBK270050]
Response: 106

Request: Follow-up item: O=C(O)c1ccccc1C(=O)NCCC1=CCCCC1 [CBK287113]
Response: 87.8

Request: Another: O=C(NC1CC1)c1cnc2ccc(F)cc2c1O [CBK307629]
Response: 82.4

Request: Next record, please: COCCSc1nnc(NS(=O)(=O)c2ccc(F)cc2)s1 [CBK144919]
Response: 87.1

Request: # iterate: c1ccc(OCCSc2cc(N3CCCC3)ncn2)cc1 [CBK103689]
Response: 113
